Each entry below carries its recorded Ki.
molecular target: 11β-hsd-1 enzyme (Homo sapiens, UniProt P28845); assay: 11β-hsd-1 enzyme assay, Kiapp determination (3H-cortisone to cortisol, radio-HPLC); type: biochemical; settings: read-out: Ki app
Sequence (P28845 whole entry, species assumed): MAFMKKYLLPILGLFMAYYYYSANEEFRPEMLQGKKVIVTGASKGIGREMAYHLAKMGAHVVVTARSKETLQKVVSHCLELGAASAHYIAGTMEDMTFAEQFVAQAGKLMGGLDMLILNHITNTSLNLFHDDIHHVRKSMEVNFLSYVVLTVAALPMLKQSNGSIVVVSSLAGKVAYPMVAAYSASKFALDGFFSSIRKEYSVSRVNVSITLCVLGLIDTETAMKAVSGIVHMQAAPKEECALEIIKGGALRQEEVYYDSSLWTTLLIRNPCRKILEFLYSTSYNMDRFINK

[
  {
    "Molecule": "Cc1cccc(NS(=O)(=O)c2cccc(Cl)c2C)n1 [Example 38]",
    "Ki (nM)": 169
  },
  {
    "Molecule": "Cc1cccc(NS(=O)(=O)c2ccc(-c3cccc(F)c3)cc2)n1",
    "Ki (nM)": 24.7
  },
  {
    "Molecule": "COc1cccc(-c2ccc(S(=O)(=O)Nc3cccc(C)n3)c(C)c2)c1",
    "Ki (nM)": 21
  },
  {
    "Molecule": "Cc1cccc(NS(=O)(=O)c2ccc(-c3cc(F)cc(F)c3)cc2C)n1",
    "Ki (nM)": 8.2
  },
  {
    "Molecule": "COc1ccc(NS(=O)(=O)c2sc3ccc(Cl)cc3c2C)nn1",
    "Ki (nM)": 8.3
  }
]

----------
target: 11β-hsd-1 enzyme (Homo sapiens); test: 11β-hsd-1 enzyme assay, percentage of inhibition (3H-cortisone to cortisol, radio-HPLC); assay type: biochemical; conditions: 0.1 uM; read-out: % inh @ 0.1 uM
# inhibition at 0.1 µM >= 80% gives criterion met, anything below gives criterion not met

[
  {
    "Molecule Smiles": "Cc1cccc(NS(=O)(=O)c2ccc(-c3cc(F)c(F)c(F)c3)cc2C)n1",
    "Label Class": "criterion met"
  },
  {
    "Molecule Smiles": "Cc1cccc(NS(=O)(=O)c2ccc(-c3ccccc3O)cc2C)n1",
    "Label Class": "criterion met"
  },
  {
    "Molecule Smiles": "Cc1cccc(NS(=O)(=O)c2ccc(-c3ccc(Cl)cc3Cl)cc2C)n1",
    "Label Class": "criterion met"
  },
  {
    "Molecule Smiles": "Cc1cccc(NS(=O)(=O)c2sc(-c3ccc(C#N)cc3)nc2C)n1",
    "Label Class": "criterion met"
  },
  {
    "Molecule Smiles": "Cc1cccc(NS(=O)(=O)c2ccc(Oc3ccccc3)cc2)n1",
    "Label Class": "criterion not met"
  },
  {
    "Molecule Smiles": "Cc1cccc(NS(=O)(=O)c2ccc(-c3cc(F)c(F)c(F)c3)cc2)n1",
    "Label Class": "criterion not met"
  },
  {
    "Molecule Smiles": "COc1ccc(NS(=O)(=O)c2sc3ccc(Cl)cc3c2C)nn1",
    "Label Class": "criterion met"
  },
  {
    "Molecule Smiles": "Cc1c(Cl)cccc1S(=O)(=O)Nc1cccc(CCO)n1",
    "Label Class": "criterion not met"
  },
  {
    "Molecule Smiles": "Cc1cccc(NS(=O)(=O)c2ccc(C(F)(F)F)cc2)n1",
    "Label Class": "criterion met"
  },
  {
    "Molecule Smiles": "Cc1cccc(NS(=O)(=O)Cc2cc(Cl)cc(Cl)c2)n1",
    "Label Class": "criterion not met"
  },
  {
    "Molecule Smiles": "Cc1cccc(NS(=O)(=O)c2ccc(-c3cccc(OC(F)(F)F)c3)cc2)n1",
    "Label Class": "criterion not met"
  },
  {
    "Molecule Smiles": "Cc1cccc(NS(=O)(=O)c2ccc(-c3ccc(C(C)(C)C)cc3)cc2C)n1",
    "Label Class": "criterion not met"
  },
  {
    "Molecule Smiles": "Cc1cccc(NS(=O)(=O)c2ccc3c(Cl)cccc3c2)n1",
    "Label Class": "criterion met"
  },
  {
    "Molecule Smiles": "COc1cccc(-c2ccc(S(=O)(=O)Nc3cccc(C)n3)cc2)c1",
    "Label Class": "criterion not met"
  },
  {
    "Molecule Smiles": "Cc1cccc(NS(=O)(=O)Cc2ccc(C(F)(F)F)cc2)n1",
    "Label Class": "criterion not met"
  },
  {
    "Molecule Smiles": "CCSc1ccc(-c2ccc(S(=O)(=O)Nc3cccc(C)n3)cc2)cc1",
    "Label Class": "criterion met"
  },
  {
    "Molecule Smiles": "Cc1cccc(NS(=O)(=O)c2ccc3ccccc3c2)n1",
    "Label Class": "criterion not met"
  },
  {
    "Molecule Smiles": "CC(=O)c1cccc(-c2ccc(S(=O)(=O)Nc3cccc(C)n3)cc2)c1",
    "Label Class": "criterion not met"
  },
  {
    "Molecule Smiles": "Cc1cc(C)c2ccc(NS(=O)(=O)c3ccc(-c4ccc(C#N)cc4)cc3)nc2n1",
    "Label Class": "criterion not met"
  },
  {
    "Molecule Smiles": "COc1c(C)cc(-c2ccc(S(=O)(=O)Nc3cccc(C)n3)cc2)cc1C",
    "Label Class": "criterion not met"
  },
  {
    "Molecule Smiles": "CCOc1cccc(-c2ccc(S(=O)(=O)Nc3cccc(C)n3)c(C)c2)c1",
    "Label Class": "criterion not met"
  }
]

----------
target: 11β-hsd-1 enzyme (Homo sapiens); assay: 11β-hsd-1 enzyme assay, percentage of inhibition (3H-cortisone to cortisol, radio-HPLC); type: biochemical; details: 0.1 uM; read-out: % inh @ 0.1 uM
# inhibition at 0.1 µM >= 80% gives true, anything below gives false

[
  {
    "Molecule Smiles": "Cc1cccc(NS(=O)(=O)c2ccc(-c3ccc(F)c(Cl)c3)cc2C)n1",
    "Tested System": "11β-hsd-1 enzyme (Homo sapiens)",
    "Label Class": "true"
  },
  {
    "Molecule Smiles": "Cc1ccc(S(=O)(=O)Nc2cccc(C)n2)cc1",
    "Tested System": "11β-hsd-1 enzyme (Homo sapiens)",
    "Label Class": "true"
  },
  {
    "Molecule Smiles": "Cc1cccc(NS(=O)(=O)c2ccc(C#N)cc2Cl)n1",
    "Tested System": "11β-hsd-1 enzyme (Homo sapiens)",
    "Label Class": "false"
  },
  {
    "Molecule Smiles": "Cc1cccc(NS(=O)(=O)c2ccc(-c3ccc(C(F)(F)F)cc3)cc2)n1",
    "Tested System": "11β-hsd-1 enzyme (Homo sapiens)",
    "Label Class": "true"
  },
  {
    "Molecule Smiles": "Cc1cccc(NS(=O)(=O)c2ccc(C(C)(C)C)cc2)n1",
    "Tested System": "11β-hsd-1 enzyme (Homo sapiens)",
    "Label Class": "false"
  },
  {
    "Molecule Smiles": "Cc1cccc(NS(=O)(=O)c2ccc(-c3ccc(OC(F)(F)F)cc3)cc2)n1",
    "Tested System": "11β-hsd-1 enzyme (Homo sapiens)",
    "Label Class": "true"
  },
  {
    "Molecule Smiles": "Cc1cccc(NS(=O)(=O)c2ccc(-c3ccc(C#N)cc3)cc2)n1",
    "Tested System": "11β-hsd-1 enzyme (Homo sapiens)",
    "Label Class": "true"
  },
  {
    "Molecule Smiles": "Cc1c(Cl)cccc1S(=O)(=O)Nc1cccc(CC(=O)N2CCOCC2)n1",
    "Tested System": "11β-hsd-1 enzyme (Homo sapiens)",
    "Label Class": "false"
  },
  {
    "Molecule Smiles": "Cc1cccc(NS(=O)(=O)c2ccc(-c3cccc(O)c3)cc2C)n1",
    "Tested System": "11β-hsd-1 enzyme (Homo sapiens)",
    "Label Class": "false"
  }
]

----------
molecular target: 11β-hsd-1 enzyme (Homo sapiens, UniProt P28845); experiment: 11β-hsd-1 enzyme assay, percentage of inhibition (3H-cortisone to cortisol, radio-HPLC); assay type: biochemical; conditions: 0.1 uM; read-out: % inh @ 0.1 uM
# inhibition at 0.1 µM >= 80% gives fulfilled, anything below gives not fulfilled

[
  {
    "Molecule Smiles": "Cc1cccc(NS(=O)(=O)c2cccc3ccccc23)n1",
    "Label Class": "not fulfilled"
  },
  {
    "Molecule Smiles": "Cc1cccc(NS(=O)(=O)c2ccc3oc4ccccc4c3c2)n1",
    "Label Class": "not fulfilled"
  },
  {
    "Molecule Smiles": "Cc1cccc(NS(=O)(=O)c2ccc(-c3ccc(F)c(C)c3)cc2C)n1",
    "Label Class": "fulfilled"
  },
  {
    "Molecule Smiles": "Cc1cc(C)nc(NS(=O)(=O)c2ccc(C(F)(F)F)cc2)c1",
    "Label Class": "not fulfilled"
  },
  {
    "Molecule Smiles": "Cc1nc(NS(=O)(=O)c2ccc(-c3ccc(C#N)cc3)cc2)ccc1C#N",
    "Label Class": "not fulfilled"
  },
  {
    "Molecule Smiles": "Cc1cccc(NS(=O)(=O)c2ccc(-c3cccc(F)c3)cc2C)n1",
    "Label Class": "fulfilled"
  },
  {
    "Molecule Smiles": "CCc1cccc(NS(=O)(=O)c2cccc(Cl)c2C)n1",
    "Label Class": "not fulfilled"
  },
  {
    "Molecule Smiles": "CCOC(=O)Cc1cccc(NS(=O)(=O)c2sc3ccc(Cl)cc3c2C)n1",
    "Label Class": "fulfilled"
  }
]

Entry source: patent US20050148631A1
